Taken from ChEMBL document CHEMBL1149485.

- tested-system: P2Y purinoceptor 2 (Homo sapiens)
- Sequence (P41231 whole entry): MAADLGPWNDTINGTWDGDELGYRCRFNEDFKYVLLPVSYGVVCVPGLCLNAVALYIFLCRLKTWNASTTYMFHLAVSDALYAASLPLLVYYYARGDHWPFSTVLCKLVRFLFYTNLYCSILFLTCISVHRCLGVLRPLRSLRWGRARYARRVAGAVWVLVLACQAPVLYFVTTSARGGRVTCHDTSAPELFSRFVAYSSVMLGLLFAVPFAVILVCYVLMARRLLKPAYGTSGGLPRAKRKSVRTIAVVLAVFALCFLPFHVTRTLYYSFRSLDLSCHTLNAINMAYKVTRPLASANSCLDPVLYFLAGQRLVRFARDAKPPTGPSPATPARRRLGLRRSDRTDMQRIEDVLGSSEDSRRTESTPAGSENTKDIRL
- assay-notes: Agonist activity at human recombinant P2Y2 receptor expressed in 1321N1 cells assessed as PLC-mediated [3H]IP production relative to UTP
- Type: functional, cell-based
experimental-endpoint: Ratio EC50

a. Nc1nc2c(ncn2[C@@H]2O[C@H](COP(=O)(O)OP(=O)(O)O)[C@@H](O)[C@H]2O)c(=O)[nH]1
b. O=c1[nH]c(=S)ccn1[C@@H]1O[C@H](COP(=O)(O)OP(=O)(O)O)[C@@H](O)[C@H]1O
c. O=c1ccn([C@@H]2C3C[C@@]3(COP(=O)(O)OP(=O)(O)O)[C@@H](O)[C@H]2O)c(=O)[nH]1 (some centres undefined)
d. Nc1ccn([C@@H]2O[C@H](COP(=O)(O)OP(=O)(O)O)[C@@H](O)[C@H]2O)c(=O)n1
Request: Sort the items above by Ratio EC50, starting with the smallest value. Put the labels in the requested order and write them down.
Result: b, c, a, d
(b: 0.53, c: 2, a: 54, d: 110)
